# Target or system: SARS-CoV-2 Mpro (Severe acute respiratory syndrome coronavirus 2, UniProt P0DTD1)
# Method summary: SARS-CoV-2 Mpro enzyme assay (FRET)
# Type: biochemical
# Measurement parameters: FRET substrate Dabcyl-KTSAVLQSGFRKM-E(Edans)-Amide, 20 nM enzyme, 30 min preincubation at 30° C., mean n=2; read-out: SARS-CoV-2 Mpro enzyme assay pKi (converted)
Observable: Ki (nM)
I only need the number, in nM, no unit after it.

# annotated cases, reported Ki shown
Molecule: CC(C)(C)C[C@H](NC(=O)C[C@@H](c1ccccc1)C(F)(F)F)C(=O)NC(C[C@@H]1CCNC1=O)C(=O)C(=O)NC1CC1 (single isomer, unassigned) [Example 16]
Observable: Ki
Measurement unit: nM
Meas value: 20
--
Molecule: CCNC(=O)C(=O)C(C[C@@H]1CCNC1=O)NC(=O)[C@H](CC(C)(C)C)NC(=O)/C=C/c1ccc(Cl)cc1Cl (stereo partly shown) [Example 26]
Observable: Ki
Measurement unit: nM
Meas value: 10
--
Molecule: CC[C@@H](CC(=O)N[C@@H](CC(C)(C)C)C(=O)NC(C[C@@H]1CCNC1=O)C(=O)C(=O)NC1CC1)c1ccccc1 (single isomer, unassigned) [Example 14]
Observable: Ki
Measurement unit: nM
Meas value: 7.94

Now for another entry.
I'd like to know its Ki. The molecule in question is NC(=O)C(=O)C(C[C@@H]1CCNC1=O)NC(=O)[C@H](CC1CC1)NC(=O)/C=C/c1ccc(Cl)cc1F (stereo partly shown) [Example 1]
12.6

====

# Target or system: SARS-CoV-2 Mpro (Severe acute respiratory syndrome coronavirus 2, UniProt P0DTD1)
# Method summary: SARS-CoV-2 Mpro enzyme assay (FRET)
# Type: biochemical
# Measurement parameters: FRET substrate Dabcyl-KTSAVLQSGFRKM-E(Edans)-Amide, 20 nM enzyme, 30 min preincubation at 30° C., mean n=2; read-out: SARS-CoV-2 Mpro enzyme assay pKi (converted)
Threshold check on Ki: strictly below 0.02 µM is True; on or above 0.02 µM is False.

See these solved cases before continuing.
Compound: NC(=O)C(=O)C(C[C@@H]1CCNC1=O)NC(=O)[C@H](CC1CC1)NC(=O)/C=C/c1ccc(Cl)cc1Cl (stereo partly shown)
Target or system: SARS-CoV-2 Mpro (Severe acute respiratory syndrome coronavirus 2, UniProt P0DTD1)
Label value: False
//
Compound: C[C@@H](CC(=O)N[C@@H](CC(C)(C)C)C(=O)NC(C[C@@H]1CCNC1=O)C(=O)C(=O)NC1CC1)c1ccccc1 (stereo partly shown)
Target or system: SARS-CoV-2 Mpro (Severe acute respiratory syndrome coronavirus 2, UniProt P0DTD1)
Label value: True
//
Compound: NC(=O)C(=O)C(CC1CC1)NC(=O)[C@H](CC1CC1)NC(=O)/C=C/c1ccc(Cl)cc1F (stereo partly shown)
Target or system: SARS-CoV-2 Mpro (Severe acute respiratory syndrome coronavirus 2, UniProt P0DTD1)
Label value: False
//
Compound: CC(C)(C)C[C@H](NC(=O)/C=C/c1ccc(Cl)cc1Cl)C(=O)NC(C#N)C[C@@H]1CCNC1=O (stereo partly shown)
Target or system: SARS-CoV-2 Mpro (Severe acute respiratory syndrome coronavirus 2, UniProt P0DTD1)
Label value: False

Strictly below 0.02 µM in Ki? O=C(/C=C/c1ccc(Cl)cc1F)N[C@@H](CC1CC1)C(=O)NC(C[C@@H]1CCNC1=O)C(=O)C(=O)NC1CC1 (stereo partly shown) [Example 28]
True

Strictly below 0.02 µM in Ki? O=C(/C=C/c1ccc(Cl)cc1Cl)N[C@@H](CC1CC1)C(=O)NC(C[C@@H]1CCNC1=O)C(=O)C(=O)NC1CC1 (stereo partly shown)
True

====

Ki: recorded values
# Target or system: SARS-CoV-2 Mpro (Severe acute respiratory syndrome coronavirus 2, UniProt P0DTD1)
# Method summary: SARS-CoV-2 Mpro enzyme assay (FRET)
# Type: biochemical
# Measurement parameters: FRET substrate Dabcyl-KTSAVLQSGFRKM-E(Edans)-Amide, 20 nM enzyme, 30 min preincubation at 30° C., mean n=2; read-out: SARS-CoV-2 Mpro enzyme assay pKi (converted)
I only need the number, in µM, no unit after it.

Compound: NC(=O)C(=O)C(C[C@@H]1CCNC1=O)NC(=O)[C@H](CC1CC1)NC(=O)OCc1ccccc1 (stereo partly drawn)
Ki, µM: 0.0251
--
Compound: CC(C)(C)C[C@H](NC(=O)/C=C/c1ccc(Cl)cc1F)C(=O)NC(C[C@@H]1CCNC1=O)C(=O)C(N)=O (stereo partly drawn)
Ki, µM: 0.00631
--
Compound: NC(=O)C(=NO)C(C[C@@H]1CCNC1=O)NC(=O)[C@H](CC1CC1)NC(=O)/C=C/c1ccc(Cl)cc1F (stereo partly drawn)
Ki, µM: 1
--
Compound: CCNC(=O)C(=O)C(C[C@@H]1CCNC1=O)NC(=O)[C@H](CC(C)(C)C)NC(=O)/C=C/c1ccc(Cl)cc1F (stereo partly drawn)
Ki, µM: 0.0126
--
Compound: O=C(N[C@@H](CC1CC1)C(=O)NC(C[C@@H]1CCNC1=O)C(=O)C(=O)NC1CC1)OCc1ccccc1 (stereo partly drawn)
Ki, µM: 0.0158

Now for another entry.
I'd like to know its Ki. The compound in question is CC[C@H](CC(=O)N[C@@H](CC1CC1)C(=O)NC(C[C@@H]1CCNC1=O)C(=O)C(=O)NC1CC1)c1ccccc1 (stereo partly drawn)
0.0251

====

# Target or system: SARS-CoV-2 Mpro (Severe acute respiratory syndrome coronavirus 2, UniProt P0DTD1)
# Method summary: SARS-CoV-2 Mpro enzyme assay (FRET)
# Type: biochemical
# Measurement parameters: FRET substrate Dabcyl-KTSAVLQSGFRKM-E(Edans)-Amide, 20 nM enzyme, 30 min preincubation at 30° C., mean n=2; read-out: SARS-CoV-2 Mpro enzyme assay pKi (converted)
Observable: Ki (µM)
I only need the number, in µM, no unit after it.

# annotated cases, reported Ki shown
Compound: CC(C)(C)C[C@H](NC(=O)/C=C/c1ccc(Cl)cc1Cl)C(=O)NC(C[C@@H]1CCNC1=O)C(=O)C(=O)NC1CC1 (stereo partly shown) [Example 10]
Ki / µM: 0.00631

Compound: O=C(CCc1ccc(Cl)cc1Cl)N[C@@H](CC1CC1)C(=O)NC(C[C@@H]1CCNC1=O)C(=O)C(=O)NC1CC1 (stereo partly shown) [Example 30]
Ki / µM: 0.02

Compound: CCNC(=O)C(=O)C(C[C@@H]1CCNC1=O)NC(=O)[C@H](CC1CC1)NC(=O)/C=C/c1ccc(Cl)cc1F (stereo partly shown) [Example 19]
Ki / µM: 0.0126

Compound: O=C(/C=C/c1ccc(Cl)cc1F)N[C@@H](CC1CC1)C(=O)NC(C[C@@H]1CCNC1=O)C(=O)C(=O)NC1CC1 (stereo partly shown) [Example 21]
Ki / µM: 0.00794

Compound: NC(=O)C(=O)C(CC1CCCC1)NC(=O)[C@H](CC1CC1)NC(=O)/C=C/c1ccc(Cl)cc1F (stereo partly shown) [Example 7]
Ki / µM: 7.94

Write down the reported Ki of CC(C)(C)C[C@H](NC(=O)/C=C/c1ccc(Cl)cc1F)C(=O)NC(C[C@@H]1CCNC1=O)C(=O)C(=O)NC1CC1 (stereo partly shown) [Example 11] , test system: SARS-CoV-2 Mpro (Severe acute respiratory syndrome coronavirus 2, UniProt P0DTD1).
100000

Write down the reported Ki of CC[C@@H](CC(=O)N[C@@H](CC1CC1)C(=O)NC(C[C@@H]1CCNC1=O)C(=O)C(=O)NC1CC1)c1ccccc1 (stereo partly shown) [Example 32] , test system: SARS-CoV-2 Mpro (Severe acute respiratory syndrome coronavirus 2, UniProt P0DTD1).
0.0126

====

# Target or system: SARS-CoV-2 Mpro (Severe acute respiratory syndrome coronavirus 2)
# Method summary: SARS-CoV-2 Mpro enzyme assay (FRET)
# Type: biochemical
# Measurement parameters: FRET substrate Dabcyl-KTSAVLQSGFRKM-E(Edans)-Amide, 20 nM enzyme, 30 min preincubation at 30° C., mean n=2; read-out: SARS-CoV-2 Mpro enzyme assay pKi (converted)
Observable: Ki (nM)
I only need the number, in nM, no unit after it.

# annotated cases, reported Ki shown
Molecule: O=C(/C=C/c1ccc(Cl)cc1F)N[C@@H](CC1CCC1)C(=O)NC(C[C@@H]1CCNC1=O)C(=O)C(=O)NC1CC1 (stereo partly drawn)
Meas value: 25.1
//
Molecule: CC(C)(C)C[C@H](NC(=O)/C=C/c1ccc(Cl)cc1Cl)C(=O)NC(C[C@@H]1CCNC1=O)C(=O)C(N)=O (stereo partly drawn)
Meas value: 7.94
//
Molecule: CC(C)C[C@H](NC(=O)/C=C/c1ccc(Cl)cc1F)C(=O)NC(C[C@@H]1CCNC1=O)C(=O)C(N)=O (stereo partly drawn)
Meas value: 12.6
//
Molecule: CC[C@H](CC(=O)N[C@@H](CC(C)(C)C)C(=O)NC(C[C@@H]1CCNC1=O)C(=O)C(=O)NC1CC1)c1ccccc1 (single isomer, unassigned)
Meas value: 10
//
Molecule: C[C@H](CC(=O)N[C@@H](CC(C)(C)C)C(=O)NC(C[C@@H]1CCNC1=O)C(=O)C(=O)NC1CC1)c1ccccc1 (stereo partly drawn)
Meas value: 15.8

I'd like to know its Ki. The molecule in question is CC(C)(C)C[C@H](NC(=O)C[C@H](c1ccccc1)C(F)(F)F)C(=O)NC(C[C@@H]1CCNC1=O)C(=O)C(=O)NC1CC1 (single isomer, unassigned)
12.6

I'd like to know its Ki. The molecule in question is CC(C)(C)NC(=O)C(=O)C(C[C@@H]1CCNC1=O)NC(=O)[C@H](CC1CC1)NC(=O)/C=C/c1ccc(Cl)cc1F (stereo partly drawn)
501

I'd like to know its Ki. The molecule in question is NC(=O)C(=O)C(C[C@@H]1CCNC1=O)NC(=O)[C@H](CC1CC1)NC(=O)CCc1ccccc1 (stereo partly drawn)
50.1

I'd like to know its Ki. The molecule in question is CCNC(=O)C(=O)C(C[C@@H]1CCNC1=O)NC(=O)[C@H](CC1CC1)NC(=O)/C=C/c1ccc(Cl)cc1Cl (stereo partly drawn)
12.6
